Test system: SK-MEL-2
Assay Overview: NCI tumour cell line growth inhibition, 48 h
Activity calls are given as the source filed them. Rule as the data show it: active = GI50 up to about 1.1 µM and inactive = higher.
Labels: class 1 for active, class 0 for inactive

| Molecule | Answer Label |
| --- | --- |
| NC(=O)CC(N/C=C1/N=C(c2ccccc2)OC1=O)C(=O)O (stereo not drawn) | class 0 |
| CC1=NN(c2ccccc2)C(=O)C1/N=N/c1ccc(Br)c(C)c1 (stereo not drawn) | class 0 |
| O=C(O)c1ccc2nc(-c3ccccn3)c(-c3ccccn3)nc2c1 | class 0 |
| Cc1cn(CC2=NCCCN2)c(=O)[nH]c1=O | class 0 |
| Cn1c(Nc2ccccc2)c(/C=N\c2ccccc2)c(=O)n(C)c1=O | class 0 |
| O=C(O)/C(Cl)=C(\Cl)C(=O)c1ccccc1 | class 0 |
| Cc1[nH]c2c(C)ccc(C)c2c1CC(=O)O | class 0 |
| COc1ccc(C2c3cc4c(cc3OC(N3CCOCC3)C2C)OCO4)cc1 (stereo not drawn) | class 0 |
| CCCCCC1=C/C(=C\c2[nH]c(-c3ccc[nH]3)cc2OC)N=C1C | class 1 |
| O=[N+]([O-])c1ccc2nc(=S)[nH]n2c1 | class 0 |
| CC(=O)c1ccc2c(c1)CC1(C2)Cc2cc3c(cc2C1)C(=O)CC3 (stereo not drawn) | class 1 |
| CN(CCCCN)c1ccc2c(=O)[nH][nH]c(=O)c2c1 | class 0 |
| Nc1ccccc1Nc1ccccc1C(=O)[O-].Nc1ccccc1Nc1ccccc1C(=O)[O-].[Zn+2] | class 0 |
| c1ccc2c(c1)[C@@H]1O[C@@H]1[C@@]13O[C@@]21[C@H]1O[C@H]1c1ccccc13 | class 0 |
| Cc1cc(C)c(S(=O)(=O)N(CCCN)OCCCN)c(C)c1 | class 0 |
| CN1C(=O)C(=O)c2cc3c(c4c2c1cc1ccccc14)OCO3 [CEPHARADIONE A] | class 0 |
| Cn1c(/C=C/CO)c(CO)c2c1C(=O)C=C(N1CC1)C2=O [APAZIQUONE] | class 1 |
| CCN(CC)CC1CCCCN1CC(=O)N1c2ccccc2C(=O)Nc2cccnc21 (stereo not drawn) [OTENZEPAD] | class 0 |

meta.source: ChEMBL document CHEMBL1201862
